target.system: FRMPD2_2, Q68DX3
Sequence (Q68DX3 944-1038): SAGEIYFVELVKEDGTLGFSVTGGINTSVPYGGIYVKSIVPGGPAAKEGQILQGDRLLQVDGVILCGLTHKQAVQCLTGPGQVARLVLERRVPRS
assay.summary: holdup assay
Design: key: below the threshold = too weak to quantify, mostly under pKd 3.1 to 4
condition.set: plain residues with an end cap or a label only (N-terminal biotin on a linker: ado-ado)
observable: pKd

Example entries and their recorded answers appear below.
{"columns": ["binder", "pKd"],
 "data": [
  ["TSSMRGMDAV [RSRC2, Q7L4I2]", "below the threshold"],
  ["PDGQCTVTEV [RNF146, Q9NTX7]", 4.44],
  ["QKNRKAQEDL [CES3, Q6UWW8]", "below the threshold"],
  ["SGSLKLMTTV [DACT1, Q9NYF0]", "below the threshold"],
  ["YRLAQESGLV [ABCC6, O95255]", "below the threshold"]
]}

In the following, a different binder is considered.
Return reported pKd. Input binder: SKSNFGSEPL [KIF17, Q9P2E2] below the threshold
